System: HCoV-NL63
Details: read-out: HCoV-NL63 EC50
measure.name: EC50 (µM)
Reply with just the number (in µM).

Input: Fill in: EC50 of CC(=O)Oc1cc2c(c(C)c1OC(C)=O)CC=C1[C@@]2(C)CC[C@@]2(C)C3C[C@](C)(C(=O)O)CC[C@]3(C)CC[C@]12C (some centres unmarked) [Dihydrocelastryl diacetate] is ___
Output: 0.65

Input: Similarly, CC(=O)[O][Hg][c]1ccccc1 [Phenylmercuric acetate] ?
Output: 6.79

====

CC50, LLC-MK2 cells: measured values

Input: Fill in: CC50 of CC(=O)Oc1cc2c(c(C)c1OC(C)=O)CC=C1[C@@]2(C)CC[C@@]2(C)C3C[C@](C)(C(=O)O)CC[C@]3(C)CC[C@]12C (some centres unmarked) [Dihydrocelastryl diacetate] is ___
Output: > 20 µM

Input: Similarly, CC(=O)[O][Hg][c]1ccccc1 [Phenylmercuric acetate] ?
Output: 5.47 µM

====

Test system: BHK-21 cells
Settings: hamster
Assign CC50 to each entry below.
Reply with just the number (in µM).

Input: Fill in: CC50 of COc1c(C)c2c(c(O)c1C/C=C(\C)CCC(=O)O)C(=O)OC2 [Mycophenolic acid] is ___
Output: 3.55

Input: Similarly, O[C@H]1[C@H]2c3cc4c(cc3CN3CCC(=C[C@@H]1O)[C@H]23)OCO4 [Lycorine] ?
Output: 4.37

Input: Similarly, CC[C@H]1CN2CCc3cc(OC)c(OC)cc3[C@@H]2C[C@@H]1C[C@H]1NCCc2cc(OC)c(OC)cc21 [Emetine] ?
Output: 2.69

Input: Similarly, COc1c(C)c2c(c(O)c1C/C=C(\C)CCC(=O)OCCN1CCOCC1)C(=O)OC2 [Mycophenolate mofetil] ?
Output: 3.43

====

Experiment: in vitro
Settings: mouse
Assign CC50 to each entry below.
Reply with just the number (in µM).

Input: Fill in: CC50 of O=C(Nc1ccccc1)OCC(CN1CCCCC1)OC(=O)Nc1ccccc1 (stereo not shown) is ___
Output: 14.5

Input: Similarly, COc1c(C)c2c(c(O)c1C/C=C(\C)CCC(=O)OCCN1CCOCC1)C(=O)OC2 [Mycophenolate mofetil] ?
Output: 3.33

Input: Similarly, `CC[C@H]1/C=C/C=C/C[C@@H](C)[C@H](O)[C@@](C)(O)C(=O)[C@@H](C)[C@H](O)[C@@H](C)C(=O)[C@@H](C)[C@H](O)[C@@H](C)/C=C/C(=O)O[C@@H]2[C@H](C)[C@H](CC1)O[C@]1(CC[C@H](C)[C@H](C[C@@H](C)O)O1)[C@H]2C` ?
Output: 6.78

Input: Similarly, `CCN(CC)CCNc1ccc(CO)c2sc3ccccc3c(=O)c12` ?
Output: 4.19

Input: Similarly, CCCCCC[C@H]1C(=O)O[C@H](C)[C@H](NC(=O)c2cccc(NC=O)c2O)C(=O)O[C@@H](C)[C@@H]1OC(=O)CC(C)C [Antimycin A] ?
Output: 3.98

Input: Similarly, `COc1ccc(Cc2nccc3cc(OC)c(OC)cc23)cc1OC` ?
Output: 12.4

Input: Similarly, CC[C@@H](C(=O)[C@@H](C)[C@@H](O)[C@H](C)[C@@H]1O[C@@H]([C@@H](CC)C(=O)O)CC[C@@H]1C)[C@H]1O[C@]2(C=C[C@@H](O)[C@]3(CC[C@@](C)([C@H]4CC[C@](O)(CC)[C@H](C)O4)O3)O2)[C@H](C)C[C@@H]1C [Salinomycin sodium] ?
Output: 2.45

Input: Similarly, C[C@@H]1C[C@@H]([C@H](O)CC2CC(=O)NC(=O)C2)C(=O)[C@@H](C)C1 [Cycloheximide] ?
Output: 3.19

Input: Similarly, `CC(C)[C@@H]1NC(=O)[C@H](C)OC(=O)[C@@H](C(C)C)NC(=O)[C@@H](C(C)C)OC(=O)[C@H](C(C)C)NC(=O)[C@H](C)OC(=O)[C@@H](C(C)C)NC(=O)[C@@H](C(C)C)OC(=O)[C@H](C(C)C)NC(=O)[C@H](C)OC(=O)[C@@H](C(C)C)NC(=O)[C@@H](C(C)C)OC1=O` ?
Output: 5.11

Input: Similarly, `O[C@H]1[C@H]2c3cc4c(cc3CN3CCC(=C[C@@H]1O)[C@H]23)OCO4` ?
Output: 3.51

Input: Similarly, `COc1c(C)c2c(c(O)c1C/C=C(\C)CCC(=O)O)C(=O)OC2` ?
Output: 4.18

Input: Similarly, `CC[C@H]1CN2CCc3cc(OC)c(OC)cc3[C@@H]2C[C@@H]1C[C@H]1NCCc2cc(OC)c(OC)cc21` ?
Output: 3.51
